- test_description: thallium flux inhibition in non-induced cells, primary screen, counter-screen for KCNK3 inhibitor project, cell-based, non-induced KCNK3 line, FluxOR thallium, triplicate (AID 651747);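 also: host cells are CHO cells without KCNK3 induction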
- assay_conditions: non-induced KCNK3 parental cells, at 10 µM
Screen size: about 2,400 compounds; about 950 (40%) were called active.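 The calls were made as follows: active = thallium flux ratio, averaged over three wells, more than 5 SD below the buffer control mean; inactive = the rest.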 The list is a sample of the results.
Just give me one of these, please: True for active, False for inactive

Please let me know the test result on file for `O=C(NCCc1ccccc1)c1ccc2c(c1)N(Cc1ccccc1)CCS2` .
True

Next record, please: `FC(F)(F)c1cc(-c2ccco2)nc(NCc2ccc(Cl)cc2)n1`
True

Next record, please: `COc1ccc(CCNC(=O)c2ccccc2OCc2ccccc2)cc1`
True

Next record, please: `CCN(CC)CCN(C(=O)c1cc(Cl)sc1Cl)c1nc2cc3c(cc2s1)OCO3`
True

Next record, please: COc1cccc(CN(C)CC(O)COC(c2ccccc2)c2ccccc2C)c1 (stereo not drawn)
True

Next record, please: `O=C(Nc1cccc(Cl)c1)Nc1ccccc1NS(=O)(=O)c1cccs1`
True

Next record, please: `O=C(N/N=C/c1cccc(OCc2ccccc2)c1)c1ccc(Br)o1`
False

Next record, please: `COc1ccccc1NC(=O)CSc1nc2sc(C)c(C)c2c(=O)n1Cc1ccco1`
False

Next record, please: `CCCCCCCCCCOC(=O)Cn1c(COc2cccc(OC)c2)[n+](C)c2ccccc21`
False

Next record, please: `O=C(Cn1cc(C(=O)c2cccs2)c2ccccc21)NCc1cccs1`
False

Next record, please: `Cc1cc(C)c(S(=O)(=O)c2ccccc2)c(OC(=O)c2c(F)cccc2Cl)n1`
False

Next record, please: `COc1cccc(C(=O)NCCSc2ccc(Br)cc2)c1`
False

Next record, please: `COc1ccc(Nc2ncnc3sc(-c4ccccc4)cc23)c(OC)c1`
True

Next record, please: COC(=O)C1=C(C)N(C(C)c2ccccc2)C(=O)/C1=C\c1ccco1 (stereo not drawn)
True

Next record, please: `Cc1ccc(NC(=S)N2CCCC(c3ccccc3)=N2)cc1`
False

Next record, please: CC(C)c1ccccc1OCC(O)CN(CC(O)COc1cccc2ccccc12)C(C)C (stereo not drawn)
False

Next record, please: `Cc1cccc2cc(CN(Cc3nnnn3Cc3ccccc3)C3CCCC3)c(=O)[nH]c12`
True

Next record, please: COc1ccc(Cl)cc1NC(=O)C(C)N1CCc2ccccc21 (stereo not drawn)
False

Next record, please: `CC(=O)c1ccccc1OCc1ccc(C(=O)c2ccccc2)cc1`
True

Next record, please: `COc1ccc(-c2nc(CCNC(=O)c3ccc(Br)o3)cs2)cc1`
False

Next record, please: CC(NCc1cccs1)C(=O)Nc1cc(Cl)cc(Cl)c1 (stereo not drawn)
False

Next record, please: `COc1cc(Cl)c(S(=O)(=O)N2CCN(Cc3ccc4c(c3)OCO4)CC2)cc1Cl`
False

Next record, please: `N#Cc1cccc(NC(=O)COC(=O)c2ccccc2C(=O)c2ccc(Cl)c([N+](=O)[O-])c2)c1`
True

Next record, please: `COc1cccc(NC(=S)N(CCc2c(C)[nH]c3ccccc23)Cc2ccco2)c1`
True

Next record, please: Clc1cccc(-c2nc(NCC3CCCO3)c3ccccc3n2)c1 (stereo not drawn)
True

Next record, please: `COc1cc(/C=C(\C#N)c2nc3ccccc3[nH]2)ccc1O`
True

Next record, please: `N#Cc1ccc(S(=O)(=O)NCC(=O)OCC(=O)NCCc2ccccc2)cc1`
False

Next record, please: `Cc1nc(N2CCN(c3ccccn3)CC2)c2c(C)c(C(=O)Nc3ccc(F)cc3)sc2n1`
False

Next record, please: `O=C(Oc1ccc(Br)cc1C(=S)N1CCOCC1)c1cccc([N+](=O)[O-])c1`
False

Next record, please: `Cc1cccc(-c2nc3ccc(C(=O)NCCN4CCN(C)CC4)cc3nc2-c2cccc(C)c2)c1`
True

Next record, please: `Cc1nc(N2CCN(c3ccccn3)CC2)c2c(C)c(C(=O)Nc3ccc(F)c(Cl)c3)sc2n1`
False

Next record, please: `O=C(NCCc1c[nH]c2ccccc12)c1cccc(Br)c1`
True

Next record, please: `COCCNc1cc(-c2ccccc2)nc2cc(-c3cccc(F)c3)nn12`
True

Next record, please: Cc1nonc1C1CCCN1C(=O)c1cc(COc2cccc(C(F)(F)F)c2)on1 (stereo not drawn)
False

Next record, please: `CCn1ncc(Br)c1C(=O)Nc1cc(C)ccc1F`
False

Next record, please: `Cc1nc2ccccc2cc1OCc1ccc(F)cc1`
False

Next record, please: `COc1ccc(CN(C)C(=O)c2cc(-c3ccc(C)cc3C)nc3ccccc23)c(OC)c1OC`
True

Next record, please: `Cc1cc(OCCCCOc2ccc(C#N)cc2)ccc1[N+](=O)[O-]`
False
